Reported IC50, SCD1 (Mus musculus, UniProt P13516).

{"line_notation": "O=c1cc(N2CCN(Cc3ccccc3-c3ccccc3)CC2)nc[nH]1", "IC50": "≥ 1100 nM"}
{"line_notation": "Cc1cccc(C)c1CN1CCN(c2cc(=O)[nH]cn2)CC1", "IC50": "≤ 1000 nM"}
{"line_notation": "O=c1cc(N2CCN(Cc3cc(Cl)ccc3[N+](=O)[O-])CC2)nc[nH]1", "IC50": "≤ 1000 nM"}
{"line_notation": "O=c1cc(N2CCN(Cc3ccc(F)c(Cl)c3)CC2)nc[nH]1", "IC50": "≤ 1000 nM"}
{"line_notation": "O=c1cc(N2CCN(Cc3cc(Br)cc(Br)c3O)CC2)nc[nH]1", "IC50": "≤ 1000 nM"}
